- Target Entity: Left-right determination factor 2 (Homo sapiens)
- Run Description: LEFTY2 binders on small-molecule microarrays, primary screen, biochemical, small-molecule microarray, 635 nm fluorescence scan (AID 1110)
- Run Parameters: LEFTY2 binding, higher = more signal
# composite z-score listing for each entry below
Reported Endpoint: composite z-score

Compound | Recorded Result
COCCOC(=O)N1C(=O)[C@@]2(c3ccccc31)[C@H](C(=O)N1CCN(c3ncccn3)CC1)[C@H]1C(=O)O[C@H](c3ccccc3)[C@H](c3ccccc3)N1[C@@H]2c1ccc(OCCO)cc1 | 0.708
C=C(/C(=C/C[C@@H](OC(=O)c1ccncc1)c1ccc(OCCO)cc1)c1cc(C(=O)OC)ccc1OC)C(C)C | -0.0398
C=CCN1Cc2ccccc2C[C@@]2(N=C(c3ccc(OCCCO)cc3)O[C@H]2c2ccccc2)C1=O | 0.473
CC(C)C(=C=CC[C@H](O)c1ccc(OCCO)cc1)C[C@H](O)c1cc(Cl)cc(Cl)c1O | 0.437
O=C1O[C@@H](c2ccccc2)[C@@H](c2ccccc2)N2[C@@H](c3ccccc3OCCO)[C@]3(C(=O)Nc4ccc(C#CCCO)cc43)[C@@H](C(=O)N3CCN(c4ncccn4)CC3)[C@H]12 | -0.0407
COC(=O)C1(Cc2ccccc2)C=C2C(=C(C(C)C)C(=O)C2C)CN1 (stereo unspecified) | -1.41
C[C@@H](OCc1ccccc1)C1NC(=O)[C@@]23C(=O)N[C@@H](Cc4ccccc4)C2[C@H](C)[C@@]2(C)O[C@H]2C3/C=C/C/C=C\CNC(=O)CNC1=O (stereo partly specified) | 0.367
O=C(O)[C@]1(Cc2ccccc2)N=C(c2ccc(OCCCO)cc2)O[C@@H]1c1ccccc1 | -0.539
COCCOC(=O)N1C(=O)[C@@]2(c3cc(C#Cc4ccc(OC)cc4)ccc31)[C@H](C(=O)N1CCN(c3ncccn3)CC1)[C@H]1C(=O)O[C@H](c3ccccc3)[C@H](c3ccccc3)N1[C@@H]2c1ccccc1OCCO | 0.0641
COc1c(C)cc(-c2cc3c(c(Cc4ccccc4)n2)[Si](C(C)C)(C(C)C)OC3)cc1C | 0.265
COc1cc(CO)cc(I)c1O[C@H]1C=C(C(=O)NCCO)C[C@@H](NCc2ccccc2F)[C@@H]1O | 0.365
CC(=O)n1cc(C(O)C2C=CC3C(=O)N(c4ccccc4)C(=O)C3N2Nc2ccccc2)c2ccccc21 (stereo unspecified) | -0.183
O=C1OCC=C[C@H]2OC34C=CCN(Cn5nnc6ccccc65)C(=O)[C@H]3N(CCCCCCO)C(=O)[C@@H]4[C@@H]12 (stereo partly specified) | -1.14
Cc1ccc(C(C)CC(O)C2C=CC3C(=O)N(c4ccccc4)C(=O)C3N2Nc2ccc(C(C)C)cc2)o1 (stereo unspecified) | -0.0337
[N-]=[N+]=Nc1ccccc1C[C@]1(C(=O)NCc2ccccc2)N=C(c2ccc(OCCCO)cc2)O[C@H]1c1ccccc1 | -0.397
COc1ccc([Si](C)(C)[C@H]2[C@H](CCn3cc(CCO)nn3)O[C@@]3(C(=O)N(Cc4ccc(N5C(=O)c6cccc7cccc5c67)cc4)c4ccccc43)[C@@H]2C)cc1 | 0.691
